FYI, the data here is from patent US7993884B2.

Biological target: SXA (Selenomonas ruminantium, UniProt O52575)
Assay: biochemical
Settings: Ki^D-xylose, inhibition of SXA-catalyzed hydrolysis of 4NPA, D-xylose α:β 6:1, pH 7.0 (100 mM sodium phosphate, I=0.3 M), 25° C.
MEASUREMENT_TYPE: pKi
Just so you know, pKi here is -log10 of the concentration in molar units; reply with that number alone.

[ask] Fill blank: measured pKi of the compound O=C[C@H](O)[C@@H](O)[C@H](O)CO [D-xylose] is ____.
[reply] 2.30

###

Biological target: SXA (Selenomonas ruminantium, UniProt O52575)
Settings: pH 5.3 and 25° C., relative to A2
MEASUREMENT_TYPE: relative kcat values
Returns: the value as a bare number; no unit string appended.

Look over these answered cases.
{"MOLECULE": "OC1OC[C@@H](O[C@@H]2OC[C@@H](O)[C@H](O)[C@H]2O)[C@H](O)[C@H]1O (stereo partly shown)", "relative kcat values": 5600}
{"MOLECULE": "O=[N+]([O-])c1ccc(O[C@@H]2O[C@@H](CO)[C@H](O)[C@H]2O)cc1 [4NPA, 4-nitrophenyl-α-L-arabinofuranoside]", "relative kcat values": 34}
{"MOLECULE": "OC[C@@H]1O[C@@H](OC[C@@H]2OC(O)[C@H](O)[C@H]2O)[C@H](O)[C@H]1O (stereo partly shown)", "relative kcat values": 1}

Turning to the following molecule.
[ask] Item O=[N+]([O-])c1ccc(O[C@@H]2OC[C@@H](O)[C@H](O)[C@H]2O)cc1 [4NPX, 4-nitrophenyl-β-D-xylopyranoside] with SXA (Selenomonas ruminantium, UniProt O52575) - relative kcat values?
[reply] 340

###

The following molecules are listed with their measured Km values.
Biological target: SXA (Selenomonas ruminantium, UniProt O52575)
Settings: 100 mM succinate-NaOH, pH 5.3, 25° C., improved quench (Example 3)
Number only, in µM; omit the unit.

{"MOLECULE": "OC1OC[C@@H](O[C@@H]2OC[C@@H](O[C@@H]3OC[C@@H](O[C@@H]4OC[C@@H](O[C@@H]5OC[C@@H](O)[C@H](O)[C@H]5O)[C@H](O)[C@H]4O)[C@H](O)[C@H]3O)[C@H](O)[C@H]2O)[C@H](O)[C@H]1O (some centres unmarked)", "MEASUREMENT_TYPE": "Km", "SCALE_UNIT": "µM", "QUANTITATIVE_RESULT": 2860}
{"MOLECULE": "OC1OC[C@@H](O[C@@H]2OC[C@@H](O[C@@H]3OC[C@@H](O[C@@H]4OC[C@@H](O)[C@H](O)[C@H]4O)[C@H](O)[C@H]3O)[C@H](O)[C@H]2O)[C@H](O)[C@H]1O (some centres unmarked)", "MEASUREMENT_TYPE": "Km", "SCALE_UNIT": "µM", "QUANTITATIVE_RESULT": 2750}
{"MOLECULE": "OC1OC[C@@H](O[C@@H]2OC[C@@H](O[C@@H]3OC[C@@H](O[C@@H]4OC[C@@H](O[C@@H]5OC[C@@H](O[C@@H]6OC[C@@H](O)[C@H](O)[C@H]6O)[C@H](O)[C@H]5O)[C@H](O)[C@H]4O)[C@H](O)[C@H]3O)[C@H](O)[C@H]2O)[C@H](O)[C@H]1O (some centres unmarked)", "MEASUREMENT_TYPE": "Km", "SCALE_UNIT": "µM", "QUANTITATIVE_RESULT": 3120}

[ask] Item OC1OC[C@@H](O[C@@H]2OC[C@@H](O)[C@H](O)[C@H]2O)[C@H](O)[C@H]1O (some centres unmarked) with SXA (Selenomonas ruminantium, UniProt O52575) - Km?
[reply] 2060

[ask] Item OC1OC[C@@H](O[C@@H]2OC[C@@H](O[C@@H]3OC[C@@H](O)[C@H](O)[C@H]3O)[C@H](O)[C@H]2O)[C@H](O)[C@H]1O (some centres unmarked) with SXA (Selenomonas ruminantium, UniProt O52575) - Km?
[reply] 2120

###

The following compounds are listed with their measured kcat/Km lower than previous determination (Example 1) values.
Target: SXA (Selenomonas ruminantium)
Conditions: pH 5.3, 25° C.
Number only, in %; omit the unit.

[ask] Fill blank: measured kcat/Km lower than previous determination (Example 1) of the compound OC1OC[C@@H](O[C@@H]2OC[C@@H](O)[C@H](O)[C@H]2O)[C@H](O)[C@H]1O (stereo partly drawn) [X2, 1,4-β-D-Xylobiose] is ____.
[reply] 9

[ask] Fill blank: measured kcat/Km lower than previous determination (Example 1) of the compound OC1OC[C@@H](O[C@@H]2OC[C@@H](O[C@@H]3OC[C@@H](O[C@@H]4OC[C@@H](O)[C@H](O)[C@H]4O)[C@H](O)[C@H]3O)[C@H](O)[C@H]2O)[C@H](O)[C@H]1O (stereo partly drawn) [X4, 1,4-β-D-xylotetraose] is ____.
[reply] 12

[ask] Fill blank: measured kcat/Km lower than previous determination (Example 1) of the compound OC1OC[C@@H](O[C@@H]2OC[C@@H](O[C@@H]3OC[C@@H](O[C@@H]4OC[C@@H](O[C@@H]5OC[C@@H](O[C@@H]6OC[C@@H](O)[C@H](O)[C@H]6O)[C@H](O)[C@H]5O)[C@H](O)[C@H]4O)[C@H](O)[C@H]3O)[C@H](O)[C@H]2O)[C@H](O)[C@H]1O (stereo partly drawn) [X6, 1,4-β-D-xylohexaose] is ____.
[reply] 25

[ask] Fill blank: measured kcat/Km lower than previous determination (Example 1) of the compound OC1OC[C@@H](O[C@@H]2OC[C@@H](O[C@@H]3OC[C@@H](O)[C@H](O)[C@H]3O)[C@H](O)[C@H]2O)[C@H](O)[C@H]1O (stereo partly drawn) [X3, 1,4-β-D-xylotriose] is ____.
[reply] 1

[ask] Fill blank: measured kcat/Km lower than previous determination (Example 1) of the compound OC1OC[C@@H](O[C@@H]2OC[C@@H](O[C@@H]3OC[C@@H](O[C@@H]4OC[C@@H](O[C@@H]5OC[C@@H](O)[C@H](O)[C@H]5O)[C@H](O)[C@H]4O)[C@H](O)[C@H]3O)[C@H](O)[C@H]2O)[C@H](O)[C@H]1O (stereo partly drawn) [X5, 1,4-β-D-xylopentaose] is ____.
[reply] 34

###

The following molecules are listed with their measured Relative Rate values.
Target: UniProtKB O52575
Assay: SXA-catalyzed hydrolysis of 4NP-glycoside substrates, initial rates (Methods A and B);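 further: initial rates from 4-nitrophenol release, tracked by absorbance over roughly 0.3 min and converted using product-minus-substrate extinction differences, in 1 mL mixtures started by enzyme addition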
Assay type: biochemical
Conditions: 5 mM 4NP glycoside, 100 mM succinate-NaOH, pH 5.3, 25° C., Method A; initial rate relative to 4NPX

Look over these answered cases.
{"MOLECULE": "C[C@@H]1O[C@@H](Oc2ccc([N+](=O)[O-])cc2)[C@H](O)[C@H](O)[C@H]1O [4-Nitrophenyl-α-L-rhamnopyranoside]", "MEASUREMENT_TYPE": "Relative Rate", "RESULT": "<10^−6"}
{"MOLECULE": "O=[N+]([O-])c1ccc(O[C@@H]2O[C@H](CO)[C@@H](O)[C@H](O)[C@H]2O)cc1 [4-Nitrophenyl-β-D-glucopyranoside]", "MEASUREMENT_TYPE": "Relative Rate", "RESULT": "<10^−6"}

[ask] Fill blank: measured Relative Rate of the molecule C[C@@H]1O[C@H](Oc2ccc([N+](=O)[O-])cc2)[C@@H](O)[C@H](O)[C@@H]1O [4-Nitrophenyl-β-fucopyranoside] is ____.
[reply] <10^−6

###

Target: β-D-xylosidase/α-L-arabinofuranosidase (Selenomonas ruminantium, UniProt O52575)
Assay: Inhibition of the enzyme by monosaccharides and ethanol (detailed description)
Assay type: biochemical, Selenomonas ruminantium GA192
MEASUREMENT_TYPE: pKi
Just so you know, pKi here is -log10 of the concentration in molar units; reply with that number alone.

[ask] Fill blank: measured pKi of the compound O=C[C@H](O)[C@@H](O)[C@H](O)[C@H](O)CO is ____.
[reply] 1.57
